- PROCEDURE_SUMMARY: Kinetic solubility of compound
- Type: physicochemical
- CONDITION: read-out: Kinetic_solubility
MEASURED_PARAMETER: solubility kinetic (µM)

1. C[C@@H]1[C@@H](C(=O)O)[C@H](C(=O)c2cc(C3CC3)c(OCC3CCN(Cc4c(Cl)cccc4Cl)CC3)cc2F)C[C@@H]1F = 58

###

The entries below are paired with their reported AUC.
- PROCEDURE_SUMMARY: AUC in mouse at 3 mg/kg, po
- Format: ADME, organism-based
- CONDITION: in vivo, read-out: AUC
MEASURED_PARAMETER: AUC (µM·h)

1. O=C(O)[C@@H]1CCCN1C(=O)c1cc(C2CC2)c(OCC23CC4CC(CC(C4)C2)C3)cc1F = 0.079
2. O=C(c1cc(C2CC2)c(OCC23CC4CC(CC(C4)C2)C3)cc1F)C1CCC[C@H]1C(=O)O (some centres undefined) = 0.53
3. C[C@@H]1[C@@H](C(=O)O)N(C(=O)c2cc(C3CC3)c(OCC34CC5CC(CC(C5)C3)C4)cc2F)C[C@@H]1F = 0.16
4. C[C@@H]1[C@@H](C(=O)O)[C@H](C(=O)c2cc(C3CC3)c(OCC34CC5CC(CC(C5)C3)C4)cc2F)C[C@@H]1F = 0.24

###

The entries below are paired with their reported pKi.
- STUDY_TARGET: Sodium channel protein type 9 subunit alpha (Homo sapiens, UniProt Q15858)
- Sequence (Q15858 whole entry): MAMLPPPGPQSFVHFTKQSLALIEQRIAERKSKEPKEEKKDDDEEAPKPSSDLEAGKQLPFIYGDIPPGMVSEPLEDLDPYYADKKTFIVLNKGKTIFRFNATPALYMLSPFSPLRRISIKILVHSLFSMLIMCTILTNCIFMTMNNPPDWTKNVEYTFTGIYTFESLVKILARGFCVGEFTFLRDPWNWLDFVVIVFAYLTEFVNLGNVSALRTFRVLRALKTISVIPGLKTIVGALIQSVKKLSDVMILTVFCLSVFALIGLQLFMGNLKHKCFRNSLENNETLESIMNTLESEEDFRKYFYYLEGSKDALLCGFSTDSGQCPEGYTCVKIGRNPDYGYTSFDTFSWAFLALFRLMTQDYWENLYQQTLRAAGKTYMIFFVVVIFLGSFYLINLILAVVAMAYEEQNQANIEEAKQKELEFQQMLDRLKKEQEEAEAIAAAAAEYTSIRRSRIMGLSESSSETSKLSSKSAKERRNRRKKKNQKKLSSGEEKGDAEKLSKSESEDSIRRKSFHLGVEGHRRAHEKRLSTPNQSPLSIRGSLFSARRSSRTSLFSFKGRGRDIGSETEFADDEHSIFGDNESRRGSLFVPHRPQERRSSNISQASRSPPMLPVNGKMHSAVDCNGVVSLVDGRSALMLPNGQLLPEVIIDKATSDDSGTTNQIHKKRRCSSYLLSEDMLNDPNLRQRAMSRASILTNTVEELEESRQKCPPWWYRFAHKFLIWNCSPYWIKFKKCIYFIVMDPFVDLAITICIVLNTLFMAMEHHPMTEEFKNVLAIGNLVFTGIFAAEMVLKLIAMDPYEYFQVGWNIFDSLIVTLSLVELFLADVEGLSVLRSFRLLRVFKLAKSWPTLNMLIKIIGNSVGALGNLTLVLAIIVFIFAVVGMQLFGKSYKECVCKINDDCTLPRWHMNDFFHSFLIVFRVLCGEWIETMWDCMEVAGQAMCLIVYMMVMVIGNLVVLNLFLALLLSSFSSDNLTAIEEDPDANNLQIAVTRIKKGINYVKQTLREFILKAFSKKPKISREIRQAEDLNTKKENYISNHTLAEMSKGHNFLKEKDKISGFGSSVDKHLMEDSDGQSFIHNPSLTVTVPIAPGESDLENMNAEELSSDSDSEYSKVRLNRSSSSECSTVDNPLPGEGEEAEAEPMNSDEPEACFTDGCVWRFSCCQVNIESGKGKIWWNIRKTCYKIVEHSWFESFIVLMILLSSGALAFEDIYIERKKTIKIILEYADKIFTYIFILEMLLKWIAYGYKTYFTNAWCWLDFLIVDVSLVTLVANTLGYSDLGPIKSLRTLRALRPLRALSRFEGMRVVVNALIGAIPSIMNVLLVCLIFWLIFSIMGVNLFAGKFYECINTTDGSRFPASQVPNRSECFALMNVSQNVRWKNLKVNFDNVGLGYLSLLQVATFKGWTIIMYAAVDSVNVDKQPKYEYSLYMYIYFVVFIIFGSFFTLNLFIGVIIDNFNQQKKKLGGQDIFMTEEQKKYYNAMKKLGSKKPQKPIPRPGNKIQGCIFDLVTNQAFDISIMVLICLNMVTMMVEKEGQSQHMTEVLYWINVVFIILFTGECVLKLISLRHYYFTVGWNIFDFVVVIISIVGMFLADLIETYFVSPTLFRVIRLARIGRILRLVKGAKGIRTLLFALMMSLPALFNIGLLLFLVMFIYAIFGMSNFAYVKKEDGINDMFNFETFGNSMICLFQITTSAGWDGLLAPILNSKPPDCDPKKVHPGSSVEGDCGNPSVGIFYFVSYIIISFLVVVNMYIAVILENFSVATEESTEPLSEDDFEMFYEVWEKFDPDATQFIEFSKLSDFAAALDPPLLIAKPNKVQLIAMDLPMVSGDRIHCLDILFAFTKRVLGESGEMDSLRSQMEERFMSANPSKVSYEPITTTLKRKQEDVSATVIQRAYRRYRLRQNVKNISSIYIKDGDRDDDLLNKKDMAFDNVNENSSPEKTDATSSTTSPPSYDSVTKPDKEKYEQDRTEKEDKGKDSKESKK
- PROCEDURE_SUMMARY: Displacement of [3H]GX-545 from Nav1.7 VSD4 (unknown origin)
pKi: −log10 of the molar value.
MEASURED_PARAMETER: pKi

1. O=C(O)[C@@H]1CC(F)(F)CN1C(=O)c1cc(C2CC2)c(OCC23CC4CC(CC(C4)C2)C3)cc1F = 7.46
2. O=C(O)[C@@H]1C[C@@H](O)CN1C(=O)c1cc(C2CC2)c(OCC23CC4CC(CC(C4)C2)C3)cc1F = 6.41
3. N#C[C@@H]1C[C@@H](C(=O)O)N(C(=O)c2cc(C3CC3)c(OCC34CC5CC(CC(C5)C3)C4)cc2F)C1 = 6.92
4. C[C@@H]1[C@@H](C(=O)O)[C@H](C(=O)c2cc(C3CC3)c(OCC34CC5CC(CC(C5)C3)C4)cc2F)C[C@@H]1F = 8.74
5. O=C(O)[C@@H]1[C@@H](O)CCN1C(=O)c1cc(C2CC2)c(OCC23CC4CC(CC(C4)C2)C3)cc1F = 6.22
6. C[C@@H]1[C@H](F)CN(C(=O)c2cc(C3CC3)c(OCC34CC5CC(CC(C5)C3)C4)cc2F)[C@@H]1C(=O)O = 6.66
7. O=C(O)[C@@H]1C[C@H](F)CN1C(=O)c1cc(C2CC2)c(OCC23CC4CC(CC(C4)C2)C3)cc1F = 6.25
8. C[C@@H]1[C@@H](C(=O)O)N(C(=O)c2cc(C3CC3)c(OCC34CC5CC(CC(C5)C3)C4)cc2F)C[C@@H]1F = 8.19
9. CO[C@@H]1CN(C(=O)c2cc(C3CC3)c(OCC34CC5CC(CC(C5)C3)C4)cc2F)[C@H](C(=O)O)[C@H]1C = 7.44
10. C[C@H]1CCN(C(=O)c2cc(C3CC3)c(OCC34CC5CC(CC(C5)C3)C4)cc2F)[C@@H]1C(=O)O = 8.00
11. O=C(c1cc(C2CC2)c(OCC23CC4CC(CC(C4)C2)C3)cc1F)C1CCC[C@H]1C(=O)O (stereo partly drawn) = 8.07
12. C[C@@H]1C[C@@H](C(=O)O)N(C(=O)c2cc(C3CC3)c(OCC34CC5CC(CC(C5)C3)C4)cc2F)C1 = 7.07
13. O=C(O)[C@@H]1C[C@@H](F)CN1C(=O)c1cc(C2CC2)c(OCC23CC4CC(CC(C4)C2)C3)cc1F = 8.15

###

The entries below are paired with their reported CLhep predicted.
- PROCEDURE_SUMMARY: Metabolic stability in human liver microsomes assessed as hepatic clearance
- Format: ADME, Microsome
MEASURED_PARAMETER: CLhep predicted (mL/min/kg)

1) O=C(O)[C@@H]1CCCN1C(=O)c1cc(C2CC2)c(OCC23CC4CC(CC(C4)C2)C3)cc1F = 11
2) C[C@@H]1[C@@H](C(=O)O)[C@H](C(=O)c2cc(C3CC3)c(OCC34CC5CC(CC(C5)C3)C4)cc2F)C[C@@H]1F = 11
3) O=C(c1cc(C2CC2)c(OCC23CC4CC(CC(C4)C2)C3)cc1F)C1CCC[C@H]1C(=O)O (stereo partly drawn) = 17
